B1: H2-Kb / Ed40 (parent complex)
chain 1: GDSVTQTEGPVTVSESESLIINCTYSATSIAYPNLFWYVRYPGEGLQLLLKVITAGQKGSSRGFEATYNKETTSFHLQKASVQESDSAVYYCALGDGYTGNYKYVFGAGTRLKVIA
chain 2: DSGVVQSPRHIIKEKGGRSVLTCIPISGHSNVVWYQQTLGKELKFLIQHYEKVERDKGFLPSRFSVQQFDDYHSEMNMSALELEDSAMYFCASSGASAETLYFGSGTRLTVL
chain 3: not shown
chain 4: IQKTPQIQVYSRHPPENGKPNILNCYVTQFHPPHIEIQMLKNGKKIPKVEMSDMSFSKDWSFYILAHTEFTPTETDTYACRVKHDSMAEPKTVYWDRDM
chain 5: SIINFEKL

Variants of: B1
Test: % of reporter cells activated (NFAT-GFP), raw; also: test concentration or dose not given here
Readout label: ratio to parent

>>> recorded_number("chain 5 I3P")
0.601
>>> recorded_number("chain 5 F5Q")
0.601
>>> recorded_number("chain 5 K7W")
0.644
>>> recorded_number("chain 5 L8H")
0.822
>>> recorded_number("chain 5 I3N")
0.534
>>> recorded_number("chain 5 E6Q")
0.527
>>> recorded_number("chain 5 F5E")
0.52
>>> recorded_number("chain 5 L8P")
0.651
>>> recorded_number("chain 5 I3S")
0.789
>>> recorded_number("chain 5 S1L")
0.466

P. chain 5 K7N
Q. chain 5 S1K
R. chain 5 N4H
Rank order required: ratio to parent, descending. # output: labels, in the requested order Q, P, R
(Q: 0.399, P: 0.163, R: 0.0593)
